# study_target: T1, human IL-6 (human, UniProt P05231 30-212)
# T1 construct: IL-6 flowed over captured antibodies
# T1 sequence (P05231 30-212 limits assumed): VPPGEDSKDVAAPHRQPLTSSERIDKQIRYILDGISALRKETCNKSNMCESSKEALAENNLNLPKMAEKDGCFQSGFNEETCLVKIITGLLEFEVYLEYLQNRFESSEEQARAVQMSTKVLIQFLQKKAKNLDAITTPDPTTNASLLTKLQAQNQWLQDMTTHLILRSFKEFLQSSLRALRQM
# protocol_summary: SPR Biacore, supernatant Ab on Protein A chip, 37 C

binder: anti-IL-6 antibody, heavy chain I51E, G66D / light chain M32L, M50D, N52S, M88Q (antibody, IgG1, V domains shown, Full IgG1 (Expi293); VL = variant III) VH: EVQLVESGGGLVQPGGSLRLSCAASGFTFSPFAMSWVRQAPGKGLEWVAKESPGGSWTYYSDTVTDRFTFSLDTSKSTAYLQMNSLRAEDTAVYYCARQLWGYYALDIWGQGTLVTVSS VL: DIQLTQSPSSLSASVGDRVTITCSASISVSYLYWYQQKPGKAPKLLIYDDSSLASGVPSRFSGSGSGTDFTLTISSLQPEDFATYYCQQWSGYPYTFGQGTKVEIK
koff [s⁻¹]: 0.00196
--
binder: anti-IL-6 antibody, heavy chain T63E, G66D / light chain M32L, M50D, N52S, M88Q (antibody, IgG1, V domains shown, Full IgG1 (Expi293); VL = variant III) VH: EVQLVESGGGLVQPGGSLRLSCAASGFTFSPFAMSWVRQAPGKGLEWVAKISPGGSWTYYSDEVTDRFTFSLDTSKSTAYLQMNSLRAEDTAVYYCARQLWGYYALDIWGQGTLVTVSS VL: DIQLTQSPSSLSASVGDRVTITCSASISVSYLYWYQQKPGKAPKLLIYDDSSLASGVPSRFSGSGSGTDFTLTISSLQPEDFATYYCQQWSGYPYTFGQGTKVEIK
koff [s⁻¹]: 0.000485
--
binder: anti-IL-6 antibody, heavy chain T63G, G66D / light chain M32L, M50D, N52S, M88Q (antibody, IgG1, V domains shown, Full IgG1 (Expi293); VL = variant III) VH: EVQLVESGGGLVQPGGSLRLSCAASGFTFSPFAMSWVRQAPGKGLEWVAKISPGGSWTYYSDGVTDRFTFSLDTSKSTAYLQMNSLRAEDTAVYYCARQLWGYYALDIWGQGTLVTVSS VL: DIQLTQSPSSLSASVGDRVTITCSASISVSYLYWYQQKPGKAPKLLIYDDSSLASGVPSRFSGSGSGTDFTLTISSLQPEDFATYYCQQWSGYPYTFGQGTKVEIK
koff [s⁻¹]: 0.00045
